src = patent US20220356230A1

MFI overview
target: Human SARS Coronavirus Spike S1 Subunit Protein (His Tag) (Sino 40150-V08B1) (Human SARS Coronavirus, UniProt P59594 14-667); test: Luminex bead binding, antigen on microspheres, antibody supernatant
Write the number in MFI without appending the unit.

// solved cases for MFI follow
BINDER	UNIT_ABBREVIATION	MFI
mAb10954 (antibody, V domains shown) VH: EVQLVESGGGLVQPGGSLRLSCAASGITVSSNYMSWVRQAPGKGLEWVSLIYSGGSTYYADSVKGRFTISRDNSKNTLYLQMNSLRVEDTAVYYCARDHGMAAAGYNYWGQGTLVTVSS VL: DIQMTQSPSSLSASVGDRVTITCQASQDINKYLNWYQQKPGKAPKLLIYDASNLETGVPSRFSGSGSGTDFTFTINSLQPEDFATYFCQQYDNLPPAFGQGTKVEIKR	MFI	15
mAb10957 (antibody, V domains shown) VH: EVQLVESGGGLVQPGGSLRLSCAASGVTVSSNYMSWVRQAPGKGLEWVSVIYSGGSTFYADSVKGRFTISRDNSKNTLFLQMNSLRIEDTAVYYCARDLGPYGMDVWGQGTTVTVSS VL: DIQLTQSPSFLSASVGDRVTITCRASQGISSYLAWYQQKPGKAPKLLIYAASTLQSGVPSRFSGSGSGTQFILTISSLQPEDFATYYCQQLNSYPGFTFGPGTKVDIKR	MFI	16

stdin: Value lookup for MFI; key = mAb10967 (antibody, V domains shown) VH: EVQLVESGGGLVQPGGSLRLSCAASGFTVSSNYMSWVRQAPGKGLEWVSVIYPGGSTFYADSVKGRFTISRDNSKNTLYLQMNSLRAEDTAVYYCARDQRDFAWGQGTLVTVSS VL: DIQMTQSPSSLSASVGDRVTITCQASQDISNYLNWYQQKPGKAPKLLIYDASNLETGVPSRFSGSGSGTDFTFTISGLQPEDIATYYCQQYDNLPPTFGQGTRLEIKR
stdout: 21
